experimentalTarget: T1, 4H2585-bA
T1 chain: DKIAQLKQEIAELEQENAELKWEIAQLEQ
experimentNotes: two-hybrid library CCNG1;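 further: natural log of median RNA to DNA barcode read ratio; higher means stronger binding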
Provide the recorded interaction score for the entries that follow.
One number for each entry.

binder: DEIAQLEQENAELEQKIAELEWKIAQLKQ [4H166-bA]
interaction score: -0.344

For every item in the list below, what is its measured interaction score?
1. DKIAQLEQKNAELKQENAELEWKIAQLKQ [4H2518-bA]
2. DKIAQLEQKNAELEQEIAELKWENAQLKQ [4H2444-bA]
3. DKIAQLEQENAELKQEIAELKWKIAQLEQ [4H2253-bA]
4. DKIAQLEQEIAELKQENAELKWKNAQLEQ [4H2143-bA]

[reply]
1: -0.589; 2: 0.675; 3: -0.557; 4: 0.499
